B1: TPR t1 (parent)
chain: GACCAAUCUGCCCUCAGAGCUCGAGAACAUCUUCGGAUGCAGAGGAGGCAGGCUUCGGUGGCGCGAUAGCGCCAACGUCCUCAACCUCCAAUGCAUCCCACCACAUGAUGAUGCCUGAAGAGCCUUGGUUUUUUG

variants of: B1; experiment: polymerase ribozyme fitness, log enrichment relative to wild type (log ratio); higher = more active; in vitro selection for triplet polymerase activity
In this section we review reported polymerase ribozyme fitness (log ratio) values for a set of variants.

# macromolecule.sequence, polymerase ribozyme fitness (log ratio)
data = [
    ("GACCAAUCUGCCUUCAGAGCUCGAGAACUUCUUCGGAUGCAGAGGAGGCAGGCUUCGGUGGCGCGAUAGCGCCAACGUCCUCAACCUCCAAUGCAUCCCACUACAUGAUGAUGCCUGAAGAGCCUUGGUUUUUUG [C13U A29U C102U]", -3.96),
    ("GACCAAUCUGCCCUAAGAGCUCGAGAACUUCUUCGGAUGCAGAGGAGGCAGGCUUCGGUGGCGCGAUAACGCCAACGUCCUCAACCUCCAAUGCAUCCCACCACAUGAUGAUGCCUGAACAGCCUUGGUUUUUUG [C15A A29U G69A G120C]", -1.85),
    ("GACCAAUCUGCCCUCAGAGCUCGAGAACAUCUUCGUAUGCAGAGGAGGCAGGCUUCGGUGGCGCGAUAGCGCCAACGUCCUCAACCUCCAAUGCAUCCCACCACAUCAUGAUGCCUGAAGAGCCUUGGUUUUUUG [G36U G107C]", -5.19),
    ("GACCAUUCUGCCCUCAGAGCUCGAGAGCAUCUUCGGAUGCAGAGGAGGCAGGCUUCGGUGGCGCGAUAGCGCCAACGUUCUCAACCUCCAAUGCAUCCCACCACAUGAUGCUGCCUGAAGAGCCUUGGUUUUUUG [A6U A27G C79U A111C]", -4.62),
    ("GACCAAUCUGCCCUCAGAGCUCGAGAACAUCUUCGGAUGCAGAGGAGGCAGGCUUCGGUGGCGCGAUAGCCCCAACGUCCUCAACCCCCAAUGCAUCCCACCACAUGAUGAUGCCUGAAGAGCCUUGGUUUUUUG [G71C U87C]", -1.45),
    ("GUCCAAUCUGCCCUCAGAGCUCGAGAACAUCUUCGGAUGAAGAGGAGGCAGGCUUCGGUGGCGCGAUAGCGCCAACGUCCUCAACCUCCAAUGCAUCCCACCACAUGAUGAUGCCUGAAGAGCCUUGGUUUUUUG [A2U C40A]", -3.29),
    ("GACCAAUCUGCCCUCAGCGCUCGAGAACAUCUUCGGAUGCAGAGGAGGCAGGCUUCGGUGGCGCGAUAGCGCCAACGUCCUCAACCUCCAAUGCAUCCCACCACAUGAUGAUGGCUGAAGAGCCUUGGUUUUUUG [A18C C114G]", -2.59),
    ("GACCAUUCUGCCCUCAGAGCUCGAGAACAUCUUCGGAUGCAGAGGAGGCAGGCUUCGGUGGCGCGAUAGCGCCAACGUCCUCAACCUCCAAUCCAUCCCACCACAUGAUGAUGCCUGAAGAGCCUUGGUUUUUUG [A6U G93C]", -0.28),
    ("GACCAAUCUGCCCUCAGAGCUCGAGAACAUCUUCGGAUGCAGAGGAGGCCGGCUUCGGUGGCGCGAUAGCGCCAACGUCCUCAACCUCCAAUGCAUCCCACCACAUGAUGAUGCCUGAAGAGCAUUGGUUUUUUG [A50C C124A]", 0.557),
    ("GAGCAAUCAGCCCUCAGAGCUCGAGAACAUCUUCGGAUGCAGAGGAGGCAGGCUUCGGUGGCGCGAUAGCGCCAACGUCCUCAAACUCCAAUGCAUCCCACCACAUGAUGAUGCCUGAAGAGCCUUGGUUUUUUG [C3G U9A C85A]", -2.07),
    ("GACCAAUCUGCCCUCAGAGCUCGAGAACAUCUUCGGAUGCAGAGCAGGCAGGUUUCGGUGGCGCGAUAGCGCCAACGACCUCAACCUCCAAUGCAUCCCACCACAUGAUGACGCCUGAAGAGCCUUGGUUUUUUG [G45C C53U U78A U112C]", 0.64),
    ("GACCAAUCUGCCCUCAGAGCUCGAGAACAUCUUCGGAUGCAGAGGAGGCAGGCUUCGGUGGCGCGAUAGCGCCAACGUCUUCAACCUCCAAUGCAUCCCACAACAUGAUGAUGCCUGAAGAGCCUUGGUUUUUUG [C80U C102A]", -2.21),
    ("GACCAAUCUGCCCUCAGGGCUCGAGAACAUCUUCGGAUGCAGAGUAGGCAGGCUUCGGUGGCGCGAUAGCGCCAACGUCCUCAACCUCCAAUGCAUCCCACUACAUGACGAUGCCGGAAGAGCCUUGGUUUUUUG [A18G G45U C102U U109C U116G]", -5.64),
    ("GACCAAUCUGCCCUCAGAGCUCGAGAACAUCUUCGGAUGCAGAGGAGGCAGGCUUCUGUGGCGCGAUAGCGCCAACGUCCUCCACCUCCAAUCCAUCCCACCACAUGAUGAUGCCUGAAGAGCCUUGGUUUUUUG [G57U A83C G93C]", -1.15),
    ("GACCAAUCUGGCCUCAGAGCUCGAGAACAUCUUCGGAUGCAGAGGAGGCAGGCUUCGGUGGCGCGAUAGCGCCAAUGUCCUCAACCUCCAAUGCAUCCAACCACAUGAUGAUGCCUGAAGAGCCUUGGUGUUUUG [C11G C76U C99A U130G]", -6.95),
    ("GACCAAUCUGCCCUCAGAGCUCGAGAACAUCUUCGGAUGCAGACGAGGCAGGCUUCGGUGGCGCGAUAGCGCCAACGUCCUCAACCUCCAAUGCAUCCCACCACAUGAUGAUCCCUGAAGAGCCUUGGUUUUUUG [G44C G113C]", -3.05),
    ("GACCAAUCUGACCUCAGAGCUCGAGAACAUCUUCGGAUGCAGAGGAGGCAGGCUUUGGUGGCGCGAUAGCGCCAACGUCCUCAACCUCCAAUGCAUCCCACCACAUGAUGAUGCCUGAAGAGCCUUGGUUUUUUG [C11A C56U]", -1.61),
    ("GACCAAUGUGCCCUCAUAGCUCGAGAACAUCUUCGGAUGCAGAGGAGGCAGGCUUCGGUGGCGCGAUAGCGCCAACGUCCACAACCCCCAAUGCACCCCACCACAUGAUGAUACCUGAAGAGCCUUGGUUUUUUG [C8G G17U U81A U87C U96C G113A]", -4.04),
    ("GACCAAUCUGCCCUCAGAGCUCGAGAACAUCUUCGGAUGCAGAGGAGGCAGGCUUCGGUGGCGCGAUAGCGCCAACGUCCUCAACCUCCAAUGCAUCUCACCACAUGAUGAUGCCUGAAGAGCCAUGGUUUUUUG [C98U U125A]", -1.46),
    ("GACCAAUCUGCCCUCUGAGCUCGAGAACAUCUUCGGAUGCAGAGGAGGCAGGGUUCGGUGGCGCGAUAGCGCCAACGUCCUCAACCUCCAAUGCAGCCCACCACAUGAUGAAGCCUGAAGAGCCUUGCUUUUUUG [A16U C53G U96G U112A G128C]", -3.45),
    ("GACCAAUCUGCCCUCAGAGCUCGAGAACAUCUUCGGAUGCAGAGCAGGCAGGCUUCGGUGGCGCGAUAGCGCCAACGUCCUCAACCUCCAAUGCAACCCACCACAUGAUGAUCCCUGAAGAGCCUUGGUUUUUUG [G45C U96A G113C]", -3.21),
    ("GACCAAUCUGCCCUCAGAGCUCGAGAACAUCUUCGGAUGCAGAGGAGGCAGGCUUCGGUGGCGCGAUAUCGCCAACGUCCUCAACCUCCAAUGCAUCCCACCACAUGAUGAUGCCUGAAGAGCCUUGGUUUUUUU [G69U G135U]", -0.532),
    ("GACCAAUCUGCCCUCAGCGUUCGAGAACAUCUUCGGAUGCAGAGGAGGCAGGUUUCGGUGGCGCGAUAGCGCCAACGUCCUCAACCUCCAAUGCAUCCCACCACAUGAUGAUGCCUGAAGAGCCUUGGUUUUUUG [A18C C20U C53U]", -1.72),
    ("GACCAAUCUGCCCUAAGAGCUCGAGAACAUCUUCCGAUGCAGAGGAGGCAGGCUUCGGUGGCGCGAUAGCGCCAACGUCCUCAACCACCAAUGCAUCCCACCACAUGAUGAUGCCUGAAGAGCCUUGGUUUUUUG [C15A G35C U87A]", -5.96),
    ("GACCAAUCUGCCCUCAGAGCUCGAGAACAUCUUCGGAUGCAGAGAAGGCAGGCUUCGGUGGCGCGAUAGCGCCAACGUCCUCAACCUCCAAUGCAUCCCACCACAUGAUAAUGCCUGAAGAGCCUUGGUUUUUUG [G45A G110A]", -1.34),
    ("GACCAAUCUGUCCUCAGAGCUAGAGAACAUCUUCGGAUGCAGAGGAGGCAGGCUUCGGUGGCGCGAUAGCGCCAACGUCCUCAACCUCCAAUGCAUCCCACCACAUGAUGAUGCCUGAAGAGCUUUGGUUUUUUG [C11U C22A C124U]", -3.19),
    ("GACCAAUCUGCCCUCAGAGCUCGAGAACAUCUUCGGAUGCAGAGGAGGCAGGCUUCGGUGGCGCGAUAGCGCCAACGUCCUCAACCUCCAAUGCAUCCCAGCACAAGAUGAUGCCUGAAGAACCUUGGUUUUUUG [C101G U106A G122A]", -0.277),
    ("GACCAAUCUGCCCUCAGAGCUCGAGAACAUCUUCGGAUGCAGAGGAGGCAGGCUUCGGUGGCACGAUAGAGCCAACGUCCUCAACCUCCAAUGCCUCCCACCACAUGAUGAUGCCUGAAGAGCCUUGGUUUUUUG [G63A C70A A95C]", -3.3),
    ("GACCAAUGUGCCCUCAGAGAUCGAGAACAUCUUCGGAUGCAGAGGAGGCAGGCUUCGGUGGCGCGAUAGCGCCAACGUCCUCACCCUCCAAUGCAUCCCACCACAUGAUGAUGCCUGAAGAGCUUUGGUUUUUUG [C8G C20A A84C C124U]", -0.801),
]

Reference for the values: the RNAGym collection of RNA variant scans (doi:10.1073/pnas.2313332121)
